System: TYK2(JH1domain-catalytic);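 further: KINOMEscan kinase panel screen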
Conditions: concentration: 1 μM, replicates: in singlicate; n = 1

molecule	unit.string	%Inh
O=C(Nc1cccc(-c2nn3ccccc3c2-c2ccnc(Nc3cccc(F)c3)n2)c1)c1c(F)ccc(F)c1Cl [GSK357952]	%	11
O=C(Nc1cccc(-c2nn3ncccc3c2-c2ccnc(Nc3ccccc3)n2)c1)c1c(F)cccc1F [GSK198271]	%	7
CC(=O)N1CCN(c2ccc(Nc3nccc(-c4sc(C(C)C)nc4-c4cccc(NS(=O)(=O)c5cccc(Cl)c5)c4)n3)cn2)CC1 [GSK1660437]	%	29
Nc1ncc(-c2ccc3nccc(-c4ccncc4)c3c2)cc1S(=O)(=O)N1CCOCC1 [GSK1627798]	%	0
O=C(Nc1cccc(Oc2ccc3nc(NC(=O)C4CC4)cn3n2)c1)c1ccccc1C(F)(F)F	%	5
CN1CCN(Cc2cccc(-c3ccc4c(Nc5ccc(Oc6ccccc6)cc5)ccnc4c3)c2)CC1 [GW578342]	%	8
c1ccc(Oc2ccc(Nc3ccnc4cc(-c5ccc(CNCCN6CCOCC6)o5)ccc34)cc2)nc1 [GW567145]	%	0
COc1cccc(C2=C(Nc3ccc(Cl)c(C(=O)O)c3)C(=O)NC2=O)c1 [SB-390769]	%	100
